test.system: Human immunodeficiency virus type 1 reverse transcriptase (Human immunodeficiency virus 1, UniProt Q72547, L100I)
test.name: Inhibition of HIV1 reverse transcriptase L100I mutant
pKi: −log10 of the molar value.
Reported pKi is given for each of the following compounds.
measured.quantity: pKi

>  <compound>
O=c1cc(Cc2c(F)cccc2F)nc(N2CCSCC2)[nH]1

>  <measured.quantity>
pKi

>  <sign.qualifier>
=

>  <number>
5.00

$$$$
>  <compound>
Cc1c(Cc2c(F)cccc2F)nc(N2CCOCC2)[nH]c1=O

>  <measured.quantity>
pKi

>  <sign.qualifier>
=

>  <number>
6.05

$$$$
>  <compound>
Cc1c(Cc2c(F)cccc2F)nc(N2CCSCC2)[nH]c1=O

>  <measured.quantity>
pKi

>  <sign.qualifier>
=

>  <number>
5.30

$$$$
>  <compound>
O=c1cc(Cc2c(F)cccc2F)nc(N2CCOCC2)[nH]1

>  <measured.quantity>
pKi

>  <sign.qualifier>
=

>  <number>
4.82

$$$$
>  <compound>
CCN(C)c1nc(C(C)c2c(F)cccc2F)c(C)c(=O)[nH]1 (stereo unspecified)

>  <measured.quantity>
pKi

>  <sign.qualifier>
=

>  <number>
5.60

$$$$
>  <compound>
COc1ccccc1N1CCN(c2nc(Cc3c(F)cccc3F)c(C)c(=O)[nH]2)CC1

>  <measured.quantity>
pKi

>  <sign.qualifier>
=

>  <number>
5.00

$$$$
>  <compound>
O=c1cc(Cc2c(F)cccc2F)nc(N2CCCCC2)[nH]1

>  <measured.quantity>
pKi

>  <sign.qualifier>
=

>  <number>
5.00

$$$$
>  <compound>
Cc1c(C(C)c2c(F)cccc2F)nc(N2CCCCC2)[nH]c1=O (stereo unspecified)

>  <measured.quantity>
pKi

>  <sign.qualifier>
=

>  <number>
5.70

$$$$
>  <compound>
CCc1c(C(C)c2c(F)cccc2F)nc(N(C)C)[nH]c1=O (stereo unspecified)

>  <measured.quantity>
pKi

>  <sign.qualifier>
=

>  <number>
5.40

$$$$
>  <compound>
CCC(c1nc(N(C)C)[nH]c(=O)c1C)c1c(F)cccc1F (stereo unspecified)

>  <measured.quantity>
pKi

>  <sign.qualifier>
<

>  <number>
4.70

$$$$
>  <compound>
CN1CCN(c2nc(Cc3c(F)cccc3F)cc(=O)[nH]2)CC1

>  <measured.quantity>
pKi

>  <sign.qualifier>
<

>  <number>
4.70

$$$$

----------
Test system: Human immunodeficiency virus 1
test.name: Resistance index, ratio of Ki for HIV1 reverse transcriptase Y181I mutant to Ki for wild type HIV1 3B reverse transcriptase
measured.quantity: Ratio Ki

>  <compound>
Cc1c(C(C)c2c(F)cccc2F)nc(N(C)C)[nH]c1=O (stereo not drawn)

>  <measured.quantity>
Ratio Ki

>  <number>
40

$$$$
>  <compound>
CN(C)c1nc(Cc2c(F)cccc2F)cc(=O)[nH]1

>  <measured.quantity>
Ratio Ki

>  <number>
37

$$$$
>  <compound>
Cc1c(C(C)c2c(F)cccc2F)nc(N(C)C(C)C)[nH]c1=O (stereo not drawn)

>  <measured.quantity>
Ratio Ki

>  <number>
21

$$$$

----------
test.name: Cytotoxicity against MT4 cells after 4 days by MTT method
Assay type: cell-based
measurement.setup: human
measured.quantity: CC50 at 96 h

>  <compound>
Cc1c(C(C)c2c(F)cccc2F)nc(N2CCSCC2)[nH]c1=O (stereo unspecified)

>  <result>
> 71 µM

$$$$
>  <compound>
O=c1cc(Cc2c(F)cccc2F)nc(N2CCC3(CC2)OCCO3)[nH]1

>  <result>
> 69 µM

$$$$
>  <compound>
Cc1c(C(C)c2c(F)cccc2F)nc(N(C)C(C)C)[nH]c1=O (stereo unspecified)

>  <result>
> 81 µM

$$$$
>  <compound>
CC(c1cc(=O)[nH]c(N(C)C)n1)c1c(F)cccc1F (stereo unspecified)

>  <result>
89 µM

$$$$
>  <compound>
CCCN(C)c1nc(Cc2c(F)cccc2F)cc(=O)[nH]1

>  <result>
85 µM

$$$$
>  <compound>
CCC(c1nc(N(C)C)[nH]c(=O)c1C)c1c(F)cccc1F (stereo unspecified)

>  <result>
> 81 µM

$$$$
>  <compound>
Cc1c(Cc2c(F)cccc2F)nc(N2CCSCC2)[nH]c1=O

>  <result>
> 74 µM

$$$$
>  <compound>
CCC(c1cc(=O)[nH]c(N(C)C)n1)c1c(F)cccc1F (stereo unspecified)

>  <result>
73 µM

$$$$
>  <compound>
CCCN(C)c1nc(C(C)c2c(F)cccc2F)c(C)c(=O)[nH]1 (stereo unspecified)

>  <result>
> 78 µM

$$$$
>  <compound>
O=c1cc(Cc2c(F)cccc2F)nc(N2CCSCC2)[nH]1

>  <result>
> 77 µM

$$$$
>  <compound>
CCCN(CCC)c1nc(Cc2c(F)cccc2F)cc(=O)[nH]1

>  <result>
> 78 µM

$$$$

----------
System: Human immunodeficiency virus 1
test.name: Resistance index, ratio of Ki for HIV1 reverse transcriptase Y181I mutant to Ki for wild type HIV1 3B reverse transcriptase

>  <molecule>
CCN(C)c1nc(C(C)c2c(F)cccc2F)c(C)c(=O)[nH]1 (stereo unspecified)

>  <Ratio Ki>
250

$$$$
>  <molecule>
CCCN(C)c1nc(C(C)c2c(F)cccc2F)c(C)c(=O)[nH]1 (stereo unspecified)

>  <Ratio Ki>
42

$$$$
>  <molecule>
CCc1c(C(C)c2c(F)cccc2F)nc(N(C)C)[nH]c1=O (stereo unspecified)

>  <Ratio Ki>
100

$$$$
>  <molecule>
O=c1cc(Cc2c(F)cccc2F)nc(N2CCSCC2)[nH]1

>  <Ratio Ki>
2

$$$$
>  <molecule>
Cc1c(C(C)c2c(F)cccc2F)nc(SC2CCCC2)[nH]c1=O (stereo unspecified)

>  <Ratio Ki>
180

$$$$
>  <molecule>
CCCNc1nc(C(C)c2c(F)cccc2F)c(C)c(=O)[nH]1 (stereo unspecified)

>  <Ratio Ki>
125

$$$$

----------
Reported pKi is given for each of the following compounds.
test.system: Human immunodeficiency virus type 1 reverse transcriptase (Human immunodeficiency virus 1, UniProt Q72547)
pKi: −log10 of the molar value.

>  <compound>
O=c1cc(Cc2c(F)cccc2F)nc(N2CCSCC2)[nH]1

>  <pKi>
6.70

$$$$
>  <compound>
CCc1c(C(C)c2c(F)cccc2F)nc(N(C)C)[nH]c1=O (stereo unspecified)

>  <pKi>
7.30

$$$$
>  <compound>
CCCN(C)c1nc(C(C)c2c(F)cccc2F)c(C)c(=O)[nH]1 (stereo unspecified)

>  <pKi>
7.52

$$$$
>  <compound>
O=c1cc(Cc2c(F)cccc2F)nc(N2CCCCC2)[nH]1

>  <pKi>
5.60

$$$$
>  <compound>
CCC(c1nc(N(C)C)[nH]c(=O)c1C)c1c(F)cccc1F (stereo unspecified)

>  <pKi>
6.00

$$$$
>  <compound>
Cc1c(C(C)c2c(F)cccc2F)nc(N2CCSCC2)[nH]c1=O (stereo unspecified)

>  <pKi>
7.22

$$$$
>  <compound>
COc1ccccc1N1CCN(c2nc(Cc3c(F)cccc3F)c(C)c(=O)[nH]2)CC1

>  <pKi>
6.60

$$$$
>  <compound>
Cc1c(C(C)c2c(F)cccc2F)nc(SC2CCCC2)[nH]c1=O (stereo unspecified)

>  <pKi>
8.30

$$$$
>  <compound>
CN(C)c1nc(Cc2c(F)cccc2F)cc(=O)[nH]1

>  <pKi>
7.10

$$$$
>  <compound>
O=c1cc(Cc2c(F)cccc2F)nc(N2CCOCC2)[nH]1

>  <pKi>
6.15

$$$$
>  <compound>
CCN(C)c1nc(C(C)c2c(F)cccc2F)c(C)c(=O)[nH]1 (stereo unspecified)

>  <pKi>
7.40

$$$$

----------
test.name: Inhibition of HIV1 reverse transcriptase Y1811 mutant
Design: species or system Human immunodeficiency virus 1
measured.quantity: log10 Ki (log10 of the value in µM)

>  <molecule>
Cc1ccnc2c1NC(=O)c1cccnc1N2C1CC1

>  <log10 Ki>
1.54

$$$$
>  <molecule>
CCCNc1nc(C(C)c2c(F)cccc2F)c(C)c(=O)[nH]1 (configuration not stated)

>  <log10 Ki>
0.70

$$$$
>  <molecule>
CCCN(C)c1nc(C(C)c2c(F)cccc2F)c(C)c(=O)[nH]1 (configuration not stated)

>  <log10 Ki>
0.10

$$$$
>  <molecule>
CCc1c(C(C)c2c(F)cccc2F)nc(N(C)C)[nH]c1=O (configuration not stated)

>  <log10 Ki>
0.70

$$$$
>  <molecule>
Cc1c(C(C)c2c(F)cccc2F)nc(SC2CCCC2)[nH]c1=O (configuration not stated)

>  <log10 Ki>
-0.05

$$$$
>  <molecule>
Cc1c(C(C)c2c(F)cccc2F)nc(N(C)C(C)C)[nH]c1=O (configuration not stated)

>  <log10 Ki>
-0.07

$$$$
